System: Klebsiella pneumoniae
Test method notes: Antibacterial activity against Klebsiella pneumoniae by two fold broth dilution method
Assay type: functional
Parameter measured: MIC (µg/mL)

INSERT INTO assay_data (molecule, measured) VALUES
  ('Cn1cc([N+](=O)[O-])cc1-c1nnc(-c2cccc([N+](=O)[O-])c2O)o1', 12.5),
  ('Cn1cc([N+](=O)[O-])cc1-c1nnc(-c2ccc(C#N)cc2)o1', 12.5),
  ('Cn1cc([N+](=O)[O-])cc1-c1nnc(-c2cc(-c3ccccc3)nc3ccc(Cl)cc23)o1', 12.5),
  ('O=[N+]([O-])c1c[nH]c(-c2nnc(-c3cc(-c4ccccc4)nc4ccc(Cl)cc34)o2)c1', 25),
  ('COc1cccc(-c2nnc(-c3cc([N+](=O)[O-])cn3C)o2)c1', 12.5),
  ('Cn1cc([N+](=O)[O-])cc1-c1nnc(-c2ccccc2Br)o1', 12.5),
  ('Cn1cc([N+](=O)[O-])cc1-c1nnc(-c2ccc[nH]2)o1', 12.5),
  ('Cn1cc([N+](=O)[O-])cc1-c1nnc(Cc2ccccc2F)o1', 12.5),
  ('O=[N+]([O-])c1c[nH]c(-c2nnc(-c3ccco3)o2)c1', 25),
  ('O=[N+]([O-])c1c[nH]c(-c2nnc(-c3ccc[nH]3)o2)c1', 12.5),
  ('COc1cccc(OC)c1-c1nnc(-c2cc([N+](=O)[O-])c[nH]2)o1', 25),
  ('COc1ccc(-c2nnc(-c3cc([N+](=O)[O-])c[nH]3)o2)cc1', 25),
  ('O=C(O)c1cn(C2CC2)c2cc(N3CCNCC3)c(F)cc2c1=O [CIPROFLOXACIN]', 1.56),
  ('O=[N+]([O-])c1c[nH]c(-c2nnc(C3CCCNC3)o2)c1 (stereo unspecified)', 25),
  ('COc1cc(/C=C/c2nnc(-c3cc([N+](=O)[O-])cn3C)o2)ccc1O', 50),
  ('Cn1cc([N+](=O)[O-])cc1-c1nnc(-c2ccco2)o1', 50),
  ('Cn1cc([N+](=O)[O-])cc1-c1nnc(C2CCCNC2)o1 (stereo unspecified)', 12.5),
  ('COc1cc(/C=C/c2nnc(-c3cc([N+](=O)[O-])c[nH]3)o2)ccc1O', 100),
  ('O=[N+]([O-])c1c[nH]c(-c2nnc(Cc3ccc(F)c4ccccc34)o2)c1', 25),
  ('O=[N+]([O-])c1c[nH]c(-c2nnc(-c3cc4cc(Cl)ccc4[nH]3)o2)c1', 25),
  ('Cn1cc([N+](=O)[O-])cc1-c1nnc(-c2cc3ccccc3[nH]2)o1', 12.5);

====

Overview of recorded MIC for various compounds
Tested on: Bacillus spizizenii
Test method notes: Antibacterial activity against Bacillus subtilis ATCC 6633 by two fold broth dilution method
Assay type: functional
Parameter measured: MIC (µg/mL)

INSERT INTO assay_data (compound, assay_target, measured) VALUES
  ('Cn1cc([N+](=O)[O-])cc1-c1nnc(-c2cc3cc(Cl)ccc3[nH]2)o1', 'Bacillus spizizenii', 1.56),
  ('Cn1cc([N+](=O)[O-])cc1-c1nnc(-c2cc3ccccc3[nH]2)o1', 'Bacillus spizizenii', 1.56),
  ('N#Cc1ccc(-c2nnc(-c3cc([N+](=O)[O-])c[nH]3)o2)cc1', 'Bacillus spizizenii', 3.12),
  ('Cn1cc([N+](=O)[O-])cc1-c1nnc(-c2ccco2)o1', 'Bacillus spizizenii', 1.56),
  ('O=[N+]([O-])c1c[nH]c(-c2nnc(-c3ccccc3O)o2)c1', 'Bacillus spizizenii', 3.12),
  ('O=[N+]([O-])c1c[nH]c(-c2nnc(Cc3ccccc3F)o2)c1', 'Bacillus spizizenii', 1.56),
  ('Cn1cc([N+](=O)[O-])cc1-c1nnc(-c2ccc[nH]2)o1', 'Bacillus spizizenii', 0.78),
  ('Cn1cc([N+](=O)[O-])cc1-c1nnc(-c2ccccc2OC(F)(F)F)o1', 'Bacillus spizizenii', 1.56),
  ('Cn1cc([N+](=O)[O-])cc1-c1nnc(-c2ccc(C#N)cc2)o1', 'Bacillus spizizenii', 1.56),
  ('Cn1cc([N+](=O)[O-])cc1-c1nnc(Cc2ccc(F)c3ccccc23)o1', 'Bacillus spizizenii', 1.56),
  ('O=[N+]([O-])c1c[nH]c(-c2nnc(-c3ccns3)o2)c1', 'Bacillus spizizenii', 3.12),
  ('COc1cccc(-c2nnc(-c3cc([N+](=O)[O-])c[nH]3)o2)c1', 'Bacillus spizizenii', 3.12),
  ('O=[N+]([O-])c1c[nH]c(-c2nnc(-c3ccccc3)o2)c1', 'Bacillus spizizenii', 3.12),
  ('O=[N+]([O-])c1c[nH]c(-c2nnc(C3CCCNC3)o2)c1 (centres undefined)', 'Bacillus spizizenii', 3.12),
  ('COc1cc(/C=C/c2nnc(-c3cc([N+](=O)[O-])c[nH]3)o2)ccc1O', 'Bacillus spizizenii', 3.12),
  ('COc1ccc(-c2nnc(-c3cc([N+](=O)[O-])cn3C)o2)cc1', 'Bacillus spizizenii', 1.56),
  ('O=[N+]([O-])c1c[nH]c(-c2nnc(-c3ccc[nH]3)o2)c1', 'Bacillus spizizenii', 1.56),
  ('COc1cccc(OC)c1-c1nnc(-c2cc([N+](=O)[O-])cn2C)o1', 'Bacillus spizizenii', 1.56),
  ('Cn1cc([N+](=O)[O-])cc1-c1nnc(C2CCCNC2)o1 (centres undefined)', 'Bacillus spizizenii', 1.56),
  ('O=C(O)c1cn(C2CC2)c2cc(N3CCNCC3)c(F)cc2c1=O', 'Bacillus spizizenii', 1.56),
  ('O=[N+]([O-])c1c[nH]c(-c2nnc(-c3cccc([N+](=O)[O-])c3O)o2)c1', 'Bacillus spizizenii', 3.12),
  ('O=[N+]([O-])c1c[nH]c(-c2nnc(-c3cc(-c4ccccc4)nc4ccc(Cl)cc34)o2)c1', 'Bacillus spizizenii', 3.12),
  ('O=[N+]([O-])c1c[nH]c(-c2nnc(C3(c4ccccc4)CC3)o2)c1', 'Bacillus spizizenii', 3.12),
  ('Cc1ccc(-c2nnc(-c3cc([N+](=O)[O-])cn3C)o2)s1', 'Bacillus spizizenii', 1.56);
